src = ChEMBL document CHEMBL3525928

Recorded uptake ratio at 0.05 h, 1 µM, one value per entry.
target: OATP2B1 (Homo sapiens, UniProt O94956); assay: Drug uptake ratio assessed as enzyme-mediated uptake in HEK293 cells expressing human OATP2B1 at 1 uM at 37 degC for 3 mins by liquid scintillation spectroscopy relative to wild type; type: ADME, cell-based
Sequence (O94956 whole entry): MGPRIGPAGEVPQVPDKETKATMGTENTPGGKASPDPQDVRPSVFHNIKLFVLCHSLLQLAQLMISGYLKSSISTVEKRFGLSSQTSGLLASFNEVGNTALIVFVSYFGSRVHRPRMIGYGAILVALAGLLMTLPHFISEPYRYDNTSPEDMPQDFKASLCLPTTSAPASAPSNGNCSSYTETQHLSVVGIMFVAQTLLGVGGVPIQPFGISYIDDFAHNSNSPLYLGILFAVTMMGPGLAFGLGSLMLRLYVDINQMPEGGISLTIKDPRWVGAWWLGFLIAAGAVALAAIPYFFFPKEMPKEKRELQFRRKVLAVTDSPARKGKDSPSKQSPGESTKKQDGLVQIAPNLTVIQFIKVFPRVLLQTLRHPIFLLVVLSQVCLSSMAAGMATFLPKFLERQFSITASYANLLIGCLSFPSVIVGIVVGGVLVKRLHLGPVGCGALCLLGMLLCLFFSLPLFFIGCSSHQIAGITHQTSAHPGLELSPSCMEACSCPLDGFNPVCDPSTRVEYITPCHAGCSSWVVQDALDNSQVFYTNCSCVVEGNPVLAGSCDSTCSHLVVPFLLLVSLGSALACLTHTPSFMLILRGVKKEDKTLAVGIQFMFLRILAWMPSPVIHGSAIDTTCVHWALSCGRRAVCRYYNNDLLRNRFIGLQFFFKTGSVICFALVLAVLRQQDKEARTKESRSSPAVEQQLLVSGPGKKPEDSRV
Response field accepts a number only; no unit should be typed.

CC(C)c1nc(N(C)S(C)(=O)=O)nc(-c2ccc(F)cc2)c1/C=C/[C@@H](O)C[C@@H](O)CC(=O)O [ROSUVASTATIN]: 6

# ---- query molecule ----
Incoming: Fill blank: measured uptake ratio at 0.05 h, 1 µM of the molecule C[C@]12CC[C@@H]3c4ccc(OS(=O)(=O)O)cc4CC[C@H]3[C@@H]1CCC2=O [ESTRONE SULFURIC ACID] is ____.
Outgoing: 44
